Catalogue of LogP values
Assay: log P determination by HPLC on reversed-phase column (C 18), EEC Directive 79/831 Annex V.A8
Assay type: physicochemical
Conditions: HPLC on reversed-phase column (C 18)
Reply briefly: the number, and no unit.

{"compound": "Cc1nn(C)c(F)c1C(=O)N(Cc1ccc(Br)cc1)C1CC1 [Compound 422]", "assay value": 2.67}
{"compound": "Cn1cnc(C(=O)N(Cc2c(Cl)cc(Cl)cc2Cl)C2CC2)c1 [Compound 503]", "assay value": 2.40}
{"compound": "COC(c1ccc(Cl)cc1Cl)N(C(=O)c1c(C)nn(C)c1F)C1CC1 (stereo not drawn) [Compound 500]", "assay value": 2.96}
{"compound": "COc1nn(C)cc1C(=O)N(Cc1ccc(C(F)(F)F)cc1)C1CC1 [Compound 259]", "assay value": 2.61}
{"compound": "Cn1cc(C(=O)N(Cc2ccc(Cl)cc2Cl)C2CC2)c(C(F)(F)F)n1 [Compound 252]", "assay value": 3.58}
{"compound": "Cc1nc(C(F)F)c(C(=O)N(Cc2ccc(Cl)cc2Cl)C2CC2)s1 [Compound 169]", "assay value": 3.74}

We next turn to a different compound, shown below.
// COc1nn(C)cc1C(=O)N(Cc1c(Cl)cc(Cl)cc1Cl)C1CC1 [Compound 255] : LogP value = 2.97

###

Experiment: log P determination by HPLC on reversed-phase column (C 18), EEC Directive 79/831 Annex V.A8
Format: physicochemical
Conditions: reversed-phase HPLC column (C 18); HPLC, C 18, 40° C., 0.1% aqueous formic acid and acetonitrile gradient
readout: chromatographic logP

// Cc1nn(C)c(F)c1C(=O)N(Cc1ccc(C(F)(F)F)cc1)C1CC1 [Compound 237] : chromatographic logP value = 2.8

###

Test: log P determination by HPLC on reversed-phase column (C 18), EEC Directive 79/831 Annex V.A8
Type: physicochemical
Conditions: HPLC on reversed-phase column (C 18)
Protocol: Temperature: 40° C.; Mobile phases: 0.1% aqueous formic acid and acetonitrile; linear gradient from 10% acetonitrile to 90% acetonitrile. Calibration was carried out using unbranched alkan-2-ones (comprising 3 to 16 carbon atoms) with known log P values (determination of the log P values by the retention times using linear interpolation between two successive alkanones).
Catalogue of LogP values
Reply briefly: the number, and no unit.

Before answering, review these 5 worked examples.
{"molecule": "CCOc1nn(C)cc1C(=O)N(C1CC1)C(C)c1ccc(Cl)cc1Cl (centres unmarked) [Compound 265]", "LogP": 3.19}
{"molecule": "Cn1cc(C(=O)N(Cc2ccc(Oc3ccccc3)cc2)C2CC2)c(C(F)F)n1 [Compound 244]", "LogP": 3.37}
{"molecule": "Cn1cc(C(=O)N(Cc2ccc(Cl)cc2Cl)C2CC2)c(C(F)F)n1 [Compound 241]", "LogP": 3.27}
{"molecule": "Cn1cc(C(=O)N(Cc2ccc(C(F)(F)F)cc2)C2CC2)c(I)n1 [Compound 262]", "LogP": 2.92}
{"molecule": "COc1nn(C)cc1C(=O)N(C1CC1)C(C)c1ccc(Cl)cc1Cl (centres unmarked) [Compound 264]", "LogP": 2.83}

// Cc1nn(C)c(F)c1C(=O)N(C1CC1)C(C)c1ccc(Cl)cc1Cl (centres unmarked) [Compound 263] : LogP value = 3.19

// Cc1nc(C(F)(F)F)c(C(=O)N(Cc2ccc(Cl)cc2Cl)C2CC2)s1 [Compound 168] : LogP value = 4.19

// Cc1nc(C(F)F)c(C(=O)N(C2CC2)C(C#N)c2ccc(Cl)cc2Cl)s1 (centres unmarked) [Compound 209] : LogP value = 3.61
